assay: Prodrug conversion in rat assessed as oral bioavailability of (2S,3S)-2-amino-3-(aminomethyl)-6-boronohexanoic acid metabolite; assay type: ADME, organism-based; settings: in vivo
This listing pairs compounds with measured F.

Recorded results for 5 compounds are shown here.
>  <Molecular String>
CC[C@H](C)[C@H](N)C(=O)NC[C@H](CCCB(O)O)[C@H](N)C(=O)O

>  <F>
39%

$$$$
>  <Molecular String>
CC[C@H](N)C(=O)NC[C@H](CCCB(O)O)[C@H](N)C(=O)O

>  <F>
72%

$$$$
>  <Molecular String>
CC(C)[C@H](N)C(=O)NC[C@@H](CCCB(O)O)[C@H](N)C(=O)O

>  <F>
56%

$$$$
>  <Molecular String>
CC(C)[C@H](N)C(=O)NC[C@H](CCCB(O)O)[C@H](N)C(=O)O

>  <F>
41%

$$$$
>  <Molecular String>
C[C@H](N)C(=O)N[C@H](C(=O)O)[C@H](CN)CCCB(O)O

>  <F>
66%

$$$$

// query # F lookup, item C[C@H](N)C(=O)N[C@H](C(=O)O)[C@@H](CN)CCCB(O)O
// result 16%

// query # F lookup, item CC(C)[C@H](N)C(=O)N[C@H](C(=O)O)[C@H](CN)CCCB(O)O
// result 31%

// query # F lookup, item C[C@H](N)C(=O)NC[C@H](CCCB(O)O)[C@H](N)C(=O)O
// result 55%

// query # F lookup, item NCC(=O)NC[C@H](CCCB(O)O)[C@H](N)C(=O)O
// result 13%

====

biological target: Arginase-1 (Homo sapiens, UniProt P05089); assay: Inhibition of recombinant human Arg1 extracted from Escherichia coli incubated for 30 mins by Ellman's method
Sequence (P05089 whole entry): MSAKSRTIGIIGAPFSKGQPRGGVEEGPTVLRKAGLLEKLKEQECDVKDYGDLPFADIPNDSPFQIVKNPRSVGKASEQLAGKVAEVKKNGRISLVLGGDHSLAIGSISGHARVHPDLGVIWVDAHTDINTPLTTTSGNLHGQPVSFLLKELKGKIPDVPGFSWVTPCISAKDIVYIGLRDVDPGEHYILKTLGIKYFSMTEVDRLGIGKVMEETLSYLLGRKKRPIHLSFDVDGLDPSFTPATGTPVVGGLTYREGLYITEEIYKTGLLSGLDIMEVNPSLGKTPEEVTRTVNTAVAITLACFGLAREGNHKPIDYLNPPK
This listing pairs molecules with measured pIC50.
// pIC50 here means minus log10 of the molar concentration (mol/L)

Recorded results for 10 molecules are shown here.
>  <Molecular String>
C[C@H](N)C(=O)N[C@H](C(=O)O)[C@H](CN)CCCB(O)O

>  <pIC50>
4.17

$$$$
>  <Molecular String>
COC(=O)[C@H](CCCB(O)O)[C@H](N)C(=O)O

>  <pIC50>
4.73

$$$$
>  <Molecular String>
NC(=O)[C@H](CCCB(O)O)[C@H](N)C(=O)O

>  <pIC50>
4.72

$$$$
>  <Molecular String>
CC[C@H](N)C(=O)NC[C@H](CCCB(O)O)[C@H](N)C(=O)O

>  <pIC50>
4.60

$$$$
>  <Molecular String>
COC[C@H](CCCB(O)O)[C@H](N)C(=O)O

>  <pIC50>
5.39

$$$$
>  <Molecular String>
N[C@H](C(=O)O)[C@@H](CF)CCCB(O)O

>  <pIC50>
5.37

$$$$
>  <Molecular String>
CC[C@H](C)[C@H](N)C(=O)NC[C@H](CCCB(O)O)[C@H](N)C(=O)O

>  <pIC50>
4.48

$$$$
>  <Molecular String>
CC(C)[C@H](N)C(=O)NC[C@H](CCCB(O)O)[C@H](N)C(=O)O

>  <pIC50>
4.37

$$$$
>  <Molecular String>
NCC(=O)NC[C@H](CCCB(O)O)[C@H](N)C(=O)O

>  <pIC50>
4.68

$$$$
>  <Molecular String>
COC[C@@H](CCCB(O)O)[C@H](N)C(=O)O

>  <pIC50>
4.96

$$$$

// query # pIC50 lookup, item C[C@H](N)C(=O)NC[C@H](CCCB(O)O)[C@H](N)C(=O)O
// result 4.92

// query # pIC50 lookup, item CNC(=O)[C@H](CCCB(O)O)[C@H](N)C(=O)O
// result 4.47

// query # pIC50 lookup, item N[C@H](C(=O)O)[C@H](CF)CCCB(O)O
// result 6.18
